- Test system: A2058
- Assay protocol: MTT assay, A2058
- Type: cell-based
- Condition info: human melanoma, 48 h incubation
Structures can show the parent of a compound that is named as a salt.
Below is a list of entries, each paired with its recorded IC50 value.
Measure name: IC50

- Compound: "O=C(COc1ccc(/C=C2\\SC(=O)N(Cc3cccc4cc5ccccc5nc34)C2=O)cc1)Nc1ccc([N+](=O)[O-])cc1 [8d·HCl]"
  Measure name: "IC50"
  Recorded result: "> 50 µM"
- Compound: "COc1cc(/C=C2\\SC(=O)N(Cc3cccc4cc5ccccc5nc34)C2=O)ccc1OCC(=O)Nc1ccc([N+](=O)[O-])cc1 [13d·HCl]"
  Measure name: "IC50"
  Recorded result: "> 50 µM"
- Compound: "COc1cc(NC(=O)COc2ccc(/C=C3\\SC(=O)N(Cc4c5ccccc5nc5ccccc45)C3=O)cc2OC)cc(OC)c1 [12b·2HCl]"
  Measure name: "IC50"
  Recorded result: "> 50 µM"
- Compound: "COc1cc(/C=C2\\SC(=O)N(Cc3c4ccccc4nc4ccccc34)C2=O)ccc1OCC(=O)Nc1cccc(C(F)(F)F)c1 [12f·2HCl]"
  Measure name: "IC50"
  Recorded result: "> 50 µM"

###

// reported melting point per item

- Compound: "COc1cc(/C=C2\\SC(=O)N(Cc3c4ccccc4nc4ccccc34)C2=O)ccc1OCC(=O)Nc1ccccc1C(F)(F)F [Compound 12e]"
  melting point: "255 to 256 °C"
- Compound: "COc1cc(/C=C2\\SC(=O)N(Cc3cccc4cc5ccccc5nc34)C2=O)ccc1OCC(=O)Nc1cc(C(F)(F)F)cc(C(F)(F)F)c1 [Compound 13g]"
  melting point: "249 to 250 °C"
- Compound: "COc1cc(/C=C2\\SC(=O)N(Cc3cccc4cc5ccccc5nc34)C2=O)ccc1OCC(=O)Nc1ccccc1C(F)(F)F [Compound 13e]"
  melting point: "217 to 218 °C"
- Compound: "O=C(COc1ccc(/C=C2\\SC(=O)N(Cc3cccc4cc5ccccc5nc34)C2=O)cc1)Nc1ccccc1C(F)(F)F"
  melting point: "205 to 206 °C (dec.)"

###

- Tested on: HCT116
- Assay protocol: MTT assay, HCT116
- Type: cell-based, human
- Condition info: Homo sapiens, HCT-116, 48 h, colorectal adenocarcinoma, 48 h incubation
So basically, if IC50 comes in under 30 µM it's yes (1), and if it's 30 µM or more it's no (0).

- Compound: "COc1cc(/C=C2\\SC(=O)N(Cc3cccc4cc5ccccc5nc34)C2=O)ccc1OCC(=O)Nc1ccccc1 [Compound 13a]"
  Assigned label: "no (0)"
- Compound: "O=C(COc1ccc(/C=C2\\SC(=O)N(Cc3cccc4cc5ccccc5nc34)C2=O)cc1)Nc1ccccc1"
  Assigned label: "yes (1)"
- Compound: "O=C(COc1ccc(/C=C2\\SC(=O)N(Cc3cccc4cc5ccccc5nc34)C2=O)cc1)Nc1ccc([N+](=O)[O-])cc1"
  Assigned label: "no (0)"
- Compound: "COc1cc(/C=C2\\SC(=O)N(Cc3c4ccccc4nc4ccccc34)C2=O)ccc1OCC(=O)Nc1ccc([N+](=O)[O-])cc1 [Compound 12d]"
  Assigned label: "yes (1)"
- Compound: "COc1cc(NC(=O)COc2ccc(/C=C3\\SC(=O)N(Cc4c5ccccc5nc5ccccc45)C3=O)cc2)cc(OC)c1"
  Assigned label: "no (0)"
- Compound: "COc1cc(/C=C2\\SC(=O)N(Cc3cccc4cc5ccccc5nc34)C2=O)ccc1OCC(=O)Nc1ccccc1C(F)(F)F [Compound 13e]"
  Assigned label: "yes (1)"
- Compound: "COc1cc(NC(=O)COc2ccc(/C=C3\\SC(=O)N(Cc4cccc5cc6ccccc6nc45)C3=O)cc2OC)cc(OC)c1 [Compound 13b]"
  Assigned label: "no (0)"

###

Form field: pIC50 (one value per entry).
- Tested on: MCF-10A
- Assay protocol: MTT assay, MCF-10A non-cancerous cells
- Format: cell-based, human
- Condition info: Homo sapiens, MCF-10A, 48 h, non-cancerous epithelial breast cells, 48 h incubation
pIC50: −log10 of the molar value.
Measure name: pIC50

- Molecule: "COc1cc(/C=C2\\SC(=O)N(Cc3c4ccccc4nc4ccccc34)C2=O)ccc1OCC(=O)Nc1ccccc1C(F)(F)F [Compound 12e]"
  Recorded result: "< 4.30"
- Molecule: "COc1cc(/C=C2\\SC(=O)N(Cc3cccc4cc5ccccc5nc34)C2=O)ccc1OCC(=O)Nc1cc(OC)c(OC)c(OC)c1 [Compound 13c]"
  Recorded result: "< 4.30"
- Molecule: "COc1cc(NC(=O)COc2ccc(/C=C3\\SC(=O)N(Cc4cccc5cc6ccccc6nc45)C3=O)cc2OC)cc(OC)c1 [Compound 13b]"
  Recorded result: 4.36
- Molecule: "O=C(COc1ccc(/C=C2\\SC(=O)N(Cc3cccc4cc5ccccc5nc34)C2=O)cc1)Nc1ccc([N+](=O)[O-])cc1 [Compound 8d]"
  Recorded result: "< 4.30"
- Molecule: "O=C(COc1ccc(/C=C2\\SC(=O)N(Cc3c4ccccc4nc4ccccc34)C2=O)cc1)Nc1cccc(C(F)(F)F)c1 [Compound 7f]"
  Recorded result: 5.01
- Molecule: "O=C(COc1ccc(/C=C2\\SC(=O)N(Cc3c4ccccc4nc4ccccc34)C2=O)cc1)Nc1ccc([N+](=O)[O-])cc1 [Compound 7d]"
  Recorded result: "< 4.30"
- Molecule: "O=C(COc1ccc(/C=C2\\SC(=O)N(Cc3c4ccccc4nc4ccccc34)C2=O)cc1)Nc1ccccc1C(F)(F)F [Compound 7e]"
  Recorded result: "< 4.30"

###

pIC50 values by entry
- System: HCT116
- Assay protocol: MTT assay, HCT116
- Format: cell-based, human
- Condition info: Homo sapiens, HCT-116, 48 h, colorectal adenocarcinoma, 48 h incubation
pIC50: −log10 of the molar value.

- Smiles code: "COc1cc(NC(=O)COc2ccc(/C=C3\\SC(=O)N(Cc4cccc5cc6ccccc6nc45)C3=O)cc2)cc(OC)c1OC"
  Limit sign: "<"
  pIC50: 4.30
- Smiles code: "O=C(COc1ccc(/C=C2\\SC(=O)N(Cc3cccc4cc5ccccc5nc34)C2=O)cc1)Nc1cccc(C(F)(F)F)c1"
  Limit sign: "="
  pIC50: 4.60
- Smiles code: "O=C(COc1ccc(/C=C2\\SC(=O)N(Cc3c4ccccc4nc4ccccc34)C2=O)cc1)Nc1cccc(C(F)(F)F)c1"
  Limit sign: "="
  pIC50: 5.06
- Smiles code: "COc1cc(NC(=O)COc2ccc(/C=C3\\SC(=O)N(Cc4cccc5cc6ccccc6nc45)C3=O)cc2)cc(OC)c1"
  Limit sign: "<"
  pIC50: 4.30

###

- Test system: MCF-10A
- Assay protocol: MTT assay, MCF-10A non-cancerous cells
- Format: cell-based, human
- Condition info: Homo sapiens, MCF-10A, 48 h, non-cancerous epithelial breast cells, 48 h incubation
- Method: The non-cancerous cell line MCF-10A (human epithelial breast cells) was cultured in a DMEM F12 medium supplemented with 10% FBS (Invitrogen, Carlsbad, CA, USA), 1× HyClone™ Antibiotic/Antimycotic Solution (GE Healthcare, Piscataway, NJ, USA), insulin, hEGF, and hydrocortisone. The BJ-5ta cells (human dermal fibroblasts) were cultured in a DMEM-M199 4:1 medium mixture, supplemented with 10% FBS and hygromycin B (0.01 mg/mL). […]
molecules and their reported IC50

- Molecule: "O=C(COc1ccc(/C=C2\\SC(=O)N(Cc3cccc4cc5ccccc5nc34)C2=O)cc1)Nc1cccc(C(F)(F)F)c1"
  System tested: "MCF-10A"
  IC50: "> 50 µM"
- Molecule: "COc1cc(NC(=O)COc2ccc(/C=C3\\SC(=O)N(Cc4c5ccccc5nc5ccccc45)C3=O)cc2OC)cc(OC)c1 [Compound 12b]"
  System tested: "MCF-10A"
  IC50: "15.6 µM"
- Molecule: "COc1cc(/C=C2\\SC(=O)N(Cc3cccc4cc5ccccc5nc34)C2=O)ccc1OCC(=O)Nc1cc(C(F)(F)F)cc(C(F)(F)F)c1 [Compound 13g]"
  System tested: "MCF-10A"
  IC50: "> 50 µM"
- Molecule: "O=C(COc1ccc(/C=C2\\SC(=O)N(Cc3cccc4cc5ccccc5nc34)C2=O)cc1)Nc1ccccc1C(F)(F)F"
  System tested: "MCF-10A"
  IC50: "> 50 µM"
- Molecule: "COc1cc(/C=C2\\SC(=O)N(Cc3cccc4cc5ccccc5nc34)C2=O)ccc1OCC(=O)Nc1cccc(C(F)(F)F)c1 [Compound 13f]"
  System tested: "MCF-10A"
  IC50: "28.9 µM"
- Molecule: "COc1cc(/C=C2\\SC(=O)N(Cc3c4ccccc4nc4ccccc34)C2=O)ccc1OCC(=O)Nc1ccc([N+](=O)[O-])cc1 [Compound 12d]"
  System tested: "MCF-10A"
  IC50: "> 50 µM"
- Molecule: "COc1cc(/C=C2\\SC(=O)N(Cc3c4ccccc4nc4ccccc34)C2=O)ccc1OCC(=O)Nc1cccc(C(F)(F)F)c1 [Compound 12f]"
  System tested: "MCF-10A"
  IC50: "> 50 µM"
- Molecule: "COc1cc(/C=C2\\SC(=O)N(Cc3c4ccccc4nc4ccccc34)C2=O)ccc1OCC(=O)Nc1cc(C(F)(F)F)cc(C(F)(F)F)c1 [Compound 12g]"
  System tested: "MCF-10A"
  IC50: "> 50 µM"
- Molecule: "O=C(COc1ccc(/C=C2\\SC(=O)N(Cc3cccc4cc5ccccc5nc34)C2=O)cc1)Nc1ccccc1"
  System tested: "MCF-10A"
  IC50: "> 50 µM"
- Molecule: "COc1cc(NC(=O)COc2ccc(/C=C3\\SC(=O)N(Cc4cccc5cc6ccccc6nc45)C3=O)cc2)cc(OC)c1"
  System tested: "MCF-10A"
  IC50: "> 50 µM"
- Molecule: "COc1cc(/C=C2\\SC(=O)N(Cc3c4ccccc4nc4ccccc34)C2=O)ccc1OCC(=O)Nc1cc(OC)c(OC)c(OC)c1 [Compound 12c]"
  System tested: "MCF-10A"
  IC50: "> 50 µM"
- Molecule: "COc1cc(/C=C2\\SC(=O)N(Cc3cccc4cc5ccccc5nc34)C2=O)ccc1OCC(=O)Nc1ccccc1C(F)(F)F [Compound 13e]"
  System tested: "MCF-10A"
  IC50: "14.9 µM"
- Molecule: "COc1cc(/C=C2\\SC(=O)N(Cc3cccc4cc5ccccc5nc34)C2=O)ccc1OCC(=O)Nc1ccccc1 [Compound 13a]"
  System tested: "MCF-10A"
  IC50: "> 50 µM"
- Molecule: "COc1cc(/C=C2\\SC(=O)N(Cc3cccc4cc5ccccc5nc34)C2=O)ccc1OCC(=O)Nc1ccc([N+](=O)[O-])cc1 [Compound 13d]"
  System tested: "MCF-10A"
  IC50: "> 50 µM"
- Molecule: "COc1cc(NC(=O)COc2ccc(/C=C3\\SC(=O)N(Cc4cccc5cc6ccccc6nc45)C3=O)cc2)cc(OC)c1OC"
  System tested: "MCF-10A"
  IC50: "> 50 µM"
